target-entity: Signal peptidase I (Escherichia coli K-12) (UniProt P00803)
Sequence (P00803 whole entry): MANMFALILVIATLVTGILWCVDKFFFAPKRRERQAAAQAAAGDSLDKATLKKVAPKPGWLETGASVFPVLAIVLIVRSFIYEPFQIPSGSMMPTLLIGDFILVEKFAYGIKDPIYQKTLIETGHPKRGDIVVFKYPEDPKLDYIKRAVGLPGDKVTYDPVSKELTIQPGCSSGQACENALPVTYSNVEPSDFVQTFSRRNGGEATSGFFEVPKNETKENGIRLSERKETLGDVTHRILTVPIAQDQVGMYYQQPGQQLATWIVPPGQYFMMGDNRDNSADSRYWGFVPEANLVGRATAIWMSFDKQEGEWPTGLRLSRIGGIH
test-description: Inhibition of Escherichia coli type 1 signal peptidase lepB assessed as residual activity at 0.0195 uM preincubated for 10 mins followed by Dabcyl-VGGTATAYGAFSRPGLE-(EDANS)-OH substrate addition measured after 2 hrs by FRET based assay (reference value: 100%)
Square brackets hold non-standard residues; d marks the D form. Peptide text beside a SMILES is read from it. * marks the point of attachment. Benzoyl(4-(4-hexylphenyl)) = CCCCCCc1ccc(-c2ccc(C(=O)*)cc2)cc1; boroAla = C[C@H](N*)B(O)O; Orn = NCCC[C@H](N)C(=O)O
# reported Activity; entries follow
The response must be a number in % with no trailing unit.

// below: answered compounds
- compound: "CCCCCCc1ccc(-c2ccc(C(=O)N[C@@H](CCCNC(=N)N)C(=O)N[C@H](C(=O)N[C@@H](C)C(=O)N[C@H]3Cc4cn(nn4)CCCN4C[C@@H]5OB(O[C@@H]5C4)[C@H](C)NC3=O)[C@@H](C)O)cc2)cc1"
  recorded-number: 97.2
- compound: "CCCCCCc1ccc(-c2ccc(C(=O)N[C@@H](Cc3cnc[nH]3)C(=O)N[C@H](C(=O)N[C@@H](C)C(=O)N[C@H]3Cc4cn(nn4)CCCN4C[C@@H]5OB(O[C@@H]5C4)[C@H](C)NC3=O)[C@@H](C)O)cc2)cc1"
  recorded-number: 81
- compound: "CCCCCCc1ccc(-c2ccc(C(=O)N[C@@H](CCCN)C(=O)N[C@H](C(=O)N[C@@H](C)C(=O)N[C@H]3Cc4cn(nn4)CCN4C[C@@H]5OB(O[C@@H]5C4)[C@H](C)NC3=O)[C@@H](C)O)cc2)cc1"
  recorded-number: 71.3

For reference, reported Activity for CCCCCCc1ccc(-c2ccc(C(=O)N[C@@H](CCCN)C(=O)N[C@H](C(=O)N[C@@H](C)C(=O)N[C@@H](CC(N)=O)C(=O)N[C@@H](C)B(O)O)[C@@H](C)O)cc2)cc1 ({Benzoyl(4-(4-hexylphenyl))}-[Orn]TAN-boroAla) stands at 84.8
